Please provide measured GLC for the entries that follow.
Species: Rattus norvegicus
Assay: Open TG-GATES - Regimen: Daily Repeat
Format: toxicity, organism-based, Sprague-Dawley
Set-up: regimen Daily Repeat, gender Male, age 6 weeks
Conditions: in vivo, po, 0 mg/kg, […], tissue Plasma, route gavage, dose level Control, time 28 day
Give bare numbers, in mg/dL.

[ask] Query (molecule): CCc1oc2ccccc2c1C(=O)c1cc(Br)c(O)c(Br)c1 ; field requested: GLC
[reply] 182

[ask] I'd like to know its GLC. The molecule in question is O=NN(CCCl)C(=O)NC1CCCCC1
[reply] 189.8

[ask] Which measured GLC value corresponds to CN(C)CCC=C1c2ccccc2COc2ccccc21 [DOXEPIN] ?
[reply] 180.8

List GLC for every entry below, keeping the order given.
1. CC[C@H]1[C@@H]2C[C@H]3[C@@H]4N(C)c5ccccc5[C@]45C[C@@H]([C@@H]2[C@H]5O)N3[C@@H]1O
2. ClC(Cl)(Cl)Cl [CARBON TETRACHLORIDE]
3. OCCOCCN1CCN(C(c2ccccc2)c2ccc(Cl)cc2)CC1 (stereo not given) [HYDROXYZINE]
4. CCC1(c2ccccc2)C(=O)NC(=O)NC1=O
5. CN(C)C(=N)N=C(N)N
6. CC1=C(CC(=O)O)c2cc(F)ccc2/C1=C\c1ccc([S+](C)[O-])cc1 (stereo not given)

[reply]
[195, 238, 186.6, 201, 176.2, 192.2]

[ask] Dear colleague, I am looking for the recorded GLC of the following molecule: CCCCc1oc2ccccc2c1C(=O)c1cc(I)c(OCCN(CC)CC)c(I)c1
[reply] 214.4
